test system: RPMI-8226 leukemia; test: NCI-60 one-dose screen, 48 h (100 = growth as untreated, 0 = no growth, -100 = all killed); conditions: 10 µM unless noted
About 83,000 compounds went through this panel and 20% of them were active in at least one assay; those are over-represented in the sample as a whole.
// values below are reported growth
# value in %; strip the unit string

COc1ccc([C@H]2c3cc(OC)c(OC)cc3C=C(C=O)C2CO)cc1OC (stereo partly drawn) | 61.5
COc1nc2ccc(C)cc2cc1-c1nc2c(cnn2-c2ccccc2)c(=O)[nH]1 | 80.8
Cc1ccc2c(-c3cc(-c4ccccc4)nc(N)c3C#N)cc(=O)oc2c1 | 101
N#Cc1c(-c2ccc(Cl)cc2)nc2c(c(-c3ccccc3)nn2-c2ccccc2)c1-c1ccc(O)cc1 | 17.9
Cc1cc(=O)oc2cc(OC(=O)CN3CCN(C)CC3)ccc12 | 103
COc1cc(C(=O)N/N=C/c2cc3cc(OCc4ccccc4)ccc3nc2OC)cc(OC)c1OC | 35.6
CN1CCN(c2ccc(-c3cc4c(Nc5ccc(F)c(Cl)c5)ncnn4c3)cc2)CC1 | 13.1
CCOC(=O)Cn1c(=O)c2c(c3ccccc3n2C)n2nnc(-c3ccccc3)c12 | 136

(Q) Tell me the measured growth of O=C(CCOCCNC(=O)COc1ccc2c(c1)OCC(c1ccc(F)cc1)C2=O)NCCCC(O)(P(=O)(O)O)P(=O)(O)O (stereo not drawn) , please.
(A) 108

(Q) Would you mind telling me what growth value was observed for CN1CCN(c2ccc(-c3ccc4ncc(C#N)c(Nc5ccc(F)c(Cl)c5)c4c3)cn2)CC1 ?
(A) 14.9

(Q) # growth lookup, item CCN1C(=O)N(CC)C2Nn3c(s/c(=C4\C(=O)Nc5ccccc54)c3=O)=NC21 (stereo not drawn)
(A) 53.2

(Q) What does the record list as growth for Cc1nc2ccccc2n1CC1C(=O)NC(=O)NC1=O ?
(A) 115

(Q) # growth lookup, item O=C(CSc1nc2ccccc2[nH]1)Nc1cccc(Cl)c1
(A) 102

(Q) Reported growth, compound COc1cc(CCCO)c(OC)c(OC)c1OC : ____
(A) 112

(Q) What measured growth goes with O=C1NC(=O)C(Cn2cnc3ccccc32)N1 (stereo not drawn) ?
(A) 99.5

(Q) What growth value was documented for this compound, COc1cc(/C=N/NC(=O)c2ccc(C)nc2)cc(OC)c1OC ?
(A) 121

(Q) Give its growth value. Item: NC1CCN(c2nc(Nc3cccc(C(F)(F)F)c3)c3c(=O)[nH]ccc3n2)CC1
(A) -45.4

(Q) What does the record list as growth for CC(=O)OC[C@H]1OC(Sc2sc(C(=O)c3ccc(C)cc3)c(N)c2-c2nc3ccccc3s2)[C@H](OC(C)=O)[C@@H](OC(C)=O)[C@@H]1OC(C)=O (stereo partly drawn) ?
(A) 46.5

(Q) Tell me the measured growth of O=C1CN(CCN2CC(=O)N(Cc3ccccc3)C(=O)C2)CC(=O)N1Cc1ccccc1 , please.
(A) 99.5

---

test system: LOX IMVI melanoma; experiment: NCI-60 one-dose screen, 48 h (100 = growth as untreated, 0 = no growth, -100 = all killed); settings: 10 µM unless noted
Compounds without any hit were thinned out: in the full panel of roughly 83,000, 20% have a hit.
// reported growth per item
Express the result in % but write the number alone.

Consider the reported growth for these molecules:
CCN1C(=O)N(CC)C2Nn3c(s/c(=C4\C(=O)N(CCC(C)C)c5ccccc54)c3=O)=NC21 (centres undefined) | 91.7
CCOC(=O)c1c2c(n(-c3ccc(C#N)cc3)c1-c1ccccc1)C=CCC2 | 84
Cc1cccc(OCC(O)CN2CCN(c3ccc(Cl)cc3)CC2)c1 (centres undefined) | 96.8
Cc1cc(N2CCCC2)nc(N(CCCNc2ccnc3cc(Cl)ccc23)Cc2ccccn2)n1 | 32.3
O=c1[nH]c2c(ccc3cnccc32)c2c1CCC2 | 0.937
COc1ccc2c(c1)C(C)Cc1c(ncnc1-n1c(C)nc3ccccc31)N2C (centres undefined) | 25.7

(Q) Request: growth, test system LOX IMVI melanoma, entry O=C1c2cccc3cccc(c23)C(=O)N1N1C(=O)c2cccc3c(NC4CCCCC4)ccc(c23)C1=O
(A) 92.1

(Q) # returns recorded growth (system: LOX IMVI melanoma) for O=c1c2cc(F)ccc2sc2c(N3CCNCC3)nc3ccc(F)cc3c12
(A) -98.5

(Q) What measured growth is associated with COc1ccc(CNC(=O)[C@H](O)[C@@H](N)Cc2ccccc2)cc1 on LOX IMVI melanoma?
(A) 97.6
